// reported composite z-score for each item listed
Molecular target: Calmodulin-1 (Homo sapiens) (UniProt P0DP23)
Assay: small molecules binding calmodulin-1 with EGTA – biochemical, small-molecule microarray, Cy5-labelled CALM1, profiling panel (AID 1111);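 also: labelled calmodulin applied in Tris saline Tween buffer holding calcium plus EGTA and DTT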
Details: Cy5-CALM1 binding fluorescence, higher = more signal
Write the value as a bare number.

Solved cases (5 shown):
• [N-]=[N+]=NCc1ccccc1[C@@H]1OC(c2ccc(OCCCO)cc2)=N[C@]1(Cc1ccccc1N=[N+]=[N-])C(=O)O = 1.4
• Cc1ccc(S[C@]2(C(=O)NCCCN(C)C)CC(=O)N(C3Cc4ccccc4C3)[C@@H]2c2ccc(CO)cc2I)cc1 = 0.0811
• COCCOC(=O)N1C(=O)[C@@]2(c3cc(C#Cc4ccc(OC)cc4)ccc31)[C@H](c1ccc(OCCO)cc1)N1[C@H](c3ccccc3)[C@H](c3ccccc3)OC(=O)[C@H]1[C@@H]2C(=O)NC[C@H](O)c1ccccc1 = 1.15
• C=C(COC)C(=O)CC[C@@H](OC(C)=O)c1ccccc1OCCO = -0.85
• CN(C)CCCNC(=O)[C@@H]1c2ccccc2C(=O)N(Cc2ccccc2C(F)(F)F)[C@H]1c1ccc(CO)cc1 = -0.206

Now take the following compound into account.
Task: Indicate its recorded composite z-score; the compound in question is `COC(=O)C(CC#Cc1ccc2c(c1)[C@]1(C(=O)N2)[C@H](C(=O)N2CCc3cc(OC)c(OC)cc3C2)[C@H]2C(=O)O[C@H](c3ccccc3)[C@H](c3ccccc3)N2[C@@H]1c1ccccc1OCCO)C(=O)OC`
Output: 1.02

---

Biological target: Fibroblast growth factor 10 (Homo sapiens)
Experiment: compounds binding fibroblast growth factor 10 – biochemical, small-molecule microarray, 635 nm fluorescence, primary screen (AID 1102)
Conditions: FGF10 binding, fluorescence 635 nm, higher = more signal
measurementLabel: composite z-score
// no unit string in output, number only

Answered cases to consult:
- COCCOC(=O)N1C(=O)[C@@]2(c3cc(C#CCCO)ccc31)[C@H](c1ccccc1OCCO)N1[C@H](c3ccccc3)[C@H](c3ccccc3)OC(=O)[C@H]1[C@@H]2C(N)=O: 1.19
- CN1C(=O)C2C(C1=O)C1C=C(CCCO)C2C(C2CC2)N1Cc1cccc(OC(F)(F)F)c1 (stereo not drawn): -0.268
- Cc1ccc(C(C)CC(O)C2C=CC3C(=O)N(C)C(=O)C3N2Nc2ccccc2)o1 (stereo not drawn): 1.19
- Cc1ccc(N2C(=O)c3ccccc3[C@](C)(C(=O)NCCCN(C)C)[C@@H]2c2ccc(CO)cc2)nc1: -0.47

Task: Please list composite z-score recorded for the molecule `CC(C)=C1C(=O)C(c2ccccc2)=C2CN3C(=O)N(CCc4ccccc4)C(=O)[C@]3(C)[C@H]21`
Output: 0.139

---

# composite z-score per entry
Test: probe aNog binding to arrayed compounds – biochemical, biotinylated probe, 635/667 nm fluorescence, primary screen (AID 1115);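 also: probe is biotinylated aNog protein used at 0.15 µg/mL for 1 h at 4 C; z-score combines 667 nm fluorescence of each spot with its signal to noise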
Details: small-molecule microarray, higher = more signal
// no unit string in output, number only

• CCCC[C@H]1OB(O)C[C@H]2C1=C(COc1ccccc1)C[C@H]1C(=O)C=CC(=O)[C@H]12 = -0.295

Task: Please supply the value of reported composite z-score for the item `COc1ccc(C(=O)Nc2cccc(CN3C(=O)[C@]4(O[C@H](CC(=O)N5Cc6ccccc6C[C@H]5CO)[C@@H]([Si](C)(C)c5ccc(OC)cc5)[C@@H]4C)c4ccccc43)c2)cc1`
Output: 0.0811

Task: Provide one value: measured composite z-score of `COC(=O)[C@@]1(Cc2ccc(OC)cc2)[C@H]2c3cc(C(=O)N4CCCC4)n(CCn4cc([N+](=O)[O-])nc4C)c3C[C@H]2CN1C(=O)c1ccccc1`
Output: 3.12

src = PubChem BioAssay
